system: Salmonella enterica subsp. enterica serovar Typhimurium; assay: Antioxidant activity in Salmonella typhimurium TA102 harboring […] mutant assessed as inhibition of t-BuO2H-dependant mutant formation at 30 uM preincubated with compound followed by t-BuO2H addition after 48 hrs by Ames test; assay type: functional
Here the recorded inhibition is given for each entry.
readout: inhibition (%)

compound: Cc1c(C)c2c(c(C)c1OC(=O)CCC(=O)O)CCC(C)(C(=O)NC1CC(C)(C)N([O])C1(C)C)O2 (centres undefined)
test-system: Salmonella enterica subsp. enterica serovar Typhimurium
readout: inhibition
readout-value: 33

compound: Cc1c(C)c2c(c(C)c1OC(=O)CCC(=O)O)CCC(C)(C(=O)O)O2 (centres undefined)
test-system: Salmonella enterica subsp. enterica serovar Typhimurium
readout: inhibition
readout-value: 35

compound: Cc1c(C)c2c(c(C)c1O)CCC(C)(C(=O)NC1CC(C)(C)N([O])C(C)(C)C1)O2 (centres undefined)
test-system: Salmonella enterica subsp. enterica serovar Typhimurium
readout: inhibition
readout-value: 4.1

compound: Cc1c(C)c2c(c(C)c1O)CC[C@@](C)(CCC[C@H](C)CCC[C@H](C)CCCC(C)C)O2 [ALPHA-TOCOPHEROL]
test-system: Salmonella enterica subsp. enterica serovar Typhimurium
readout: inhibition
readout-value: 15

====

experiment: Cytotoxicity against mouse LMTK cells assessed as reduction in cell viability at 300 uM after 72 hrs by MTT assay; type: toxicity; conditions: read-out: INH
readout: cytotoxicity at 72 h, 300 µM

compound: Cc1c(C)c2c(c(C)c1OC(=O)CCC(=O)NC1CC(C)(C)N([O])C(C)(C)C1)CC[C@@](C)(CCC[C@H](C)CCC[C@H](C)CCCC(C)C)O2
readout-value: 19%
--
compound: Cc1c(C)c2c(c(C)c1OC(=O)CCC(=O)NC1CC(C)(C)N([O])C1(C)C)CCC(C)(C(=O)NC1CC(C)(C)N([O])C1(C)C)O2 (centres undefined)
readout-value: 10%
--
compound: CC1(C)CC(NC(=O)CCC(=O)O)CC(C)(C)N1[O]
readout-value: 18%
--
compound: CC1(C)CC(CNC(=O)CCC(=O)O)C(C)(C)N1[O] (centres undefined)
readout-value: 0%

====

assay: Cytotoxicity against mouse LMTK cells assessed as reduction in cell viability at 300 uM after 72 hrs by MTT assay; type: toxicity; conditions: read-out: INH
readout: cytotoxicity at 72 h, 300 µM (%)

compound: Cc1c(C)c2c(c(C)c1OC(=O)CCC(=O)O)CCC(C)(C(=O)O)O2 (stereo not drawn)
readout-value: 7

compound: Cc1c(C)c2c(c(C)c1O)CC[C@@](C)(CCC[C@H](C)CCC[C@H](C)CCCC(C)C)O2 [ALPHA-TOCOPHEROL]
readout-value: 28

compound: Cc1c(C)c2c(c(C)c1OC(=O)CCC(=O)O)CCC(C)(C(=O)NC1CC(C)(C)N([O])C1(C)C)O2 (stereo not drawn)
readout-value: 0

compound: Cc1c(C)c2c(c(C)c1O)CCC(C)(C(=O)O)O2 (stereo not drawn) [TROLOX]
readout-value: 0

compound: Cc1c(C)c2c(c(C)c1OC(=O)CCC(=O)NC1CC(C)(C)N([O])C1(C)C)CC[C@@](C)(CCC[C@H](C)CCC[C@H](C)CCCC(C)C)O2 (stereo partly drawn)
readout-value: 30

compound: CC1(C)CC(NC(=O)CCC(=O)O)C(C)(C)N1[O] (stereo not drawn)
readout-value: 0

compound: Cc1c(C)c2c(c(C)c1OC(=O)CCC(=O)O)CCC(C)(C(=O)NCC1CC(C)(C)N([O])C1(C)C)O2 (stereo not drawn)
readout-value: 0

compound: Cc1c(C)c2c(c(C)c1OC(=O)CCC(=O)O)CCC(C)(C(=O)NC1CC(C)(C)N([O])C(C)(C)C1)O2 (stereo not drawn)
readout-value: 0

====

assay: Genotoxicity in Escherichia coli PQ37 expressing lacZ gene assessed as ratio of inducible beta-galactosidase activity to alkaline phosphatase activity at 3 mM after 2 hrs by SOS-chromotest relative to control; assay type: toxicity; conditions: Escherichia coli PQ37 cells expressing lacZ gene, read-out: FC

molecule: Cc1c(C)c2c(c(C)c1O)CC[C@@](C)(CCC[C@H](C)CCC[C@H](C)CCCC(C)C)O2
fold induction at 2 h, 3000 µM: 1.28

molecule: CC1(C)CC(NC(=O)CCC(=O)O)C(C)(C)N1[O] (stereo not given)
fold induction at 2 h, 3000 µM: 1.2

molecule: Cc1c(C)c2c(c(C)c1O)CCC(C)(C(=O)O)O2 (stereo not given)
fold induction at 2 h, 3000 µM: 1

molecule: CC1(C)CC(NC(=O)CCC(=O)O)CC(C)(C)N1[O]
fold induction at 2 h, 3000 µM: 1.3

molecule: CC1(C)CC(CNC(=O)CCC(=O)O)C(C)(C)N1[O] (stereo not given)
fold induction at 2 h, 3000 µM: 1.3

====

experiment: Genotoxicity in Escherichia coli PQ37 expressing lacZ gene assessed as ratio of inducible beta-galactosidase activity to alkaline phosphatase activity at 30 mM after 2 hrs by SOS-chromotest relative to control; assay type: toxicity; conditions: Escherichia coli PQ37 cells expressing lacZ gene, read-out: FC
// reported fold induction at 2 h, 30000 µM for each item listed

molecule: Cc1c(C)c2c(c(C)c1OC(=O)CCC(=O)NC1CC(C)(C)N([O])C1(C)C)CC[C@@](C)(CCC[C@H](C)CCC[C@H](C)CCCC(C)C)O2 (stereo partly specified)
fold induction at 2 h, 30000 µM: 0.8
//
molecule: Cc1c(C)c2c(c(C)c1OC(=O)CCC(=O)O)CCC(C)(C(=O)NC1CC(C)(C)N([O])C1(C)C)O2 (stereo unspecified)
fold induction at 2 h, 30000 µM: 1.2
//
molecule: Cc1c(C)c2c(c(C)c1OC(=O)CCC(=O)NCC1CC(C)(C)N([O])C1(C)C)CCC(C)(C(=O)NCC1CC(C)(C)N([O])C1(C)C)O2 (stereo unspecified)
fold induction at 2 h, 30000 µM: 1.2
//
molecule: Cc1c(C)c2c(c(C)c1OC(=O)CCC(=O)NC1CC(C)(C)N([O])C1(C)C)CCC(C)(C(=O)NC1CC(C)(C)N([O])C1(C)C)O2 (stereo unspecified)
fold induction at 2 h, 30000 µM: 1.1
//
molecule: Cc1c(C)c2c(c(C)c1OC(=O)CCC(=O)NC1CC(C)(C)N([O])C(C)(C)C1)CC[C@@](C)(CCC[C@H](C)CCC[C@H](C)CCCC(C)C)O2
fold induction at 2 h, 30000 µM: 1.1
//
molecule: Cc1c(C)c2c(c(C)c1OC(=O)CCC(=O)NCC1CC(C)(C)N([O])C1(C)C)CC[C@@](C)(CCC[C@H](C)CCC[C@H](C)CCCC(C)C)O2 (stereo partly specified)
fold induction at 2 h, 30000 µM: 1

====

Recorded fold induction at 2 h, 30000 µM, one value per entry.
test: Genotoxicity in Escherichia coli PQ37 expressing lacZ gene assessed as ratio of inducible beta-galactosidase activity to alkaline phosphatase activity at 30 mM after 2 hrs by SOS-chromotest relative to control; format: toxicity; details: Escherichia coli PQ37 cells expressing lacZ gene, read-out: FC

molecule: Cc1c(C)c2c(c(C)c1OC(=O)CCC(=O)NC1CC(C)(C)N([O])C(C)(C)C1)CCC(C)(C(=O)NC1CC(C)(C)N([O])C(C)(C)C1)O2 (stereo not drawn)
fold induction at 2 h, 30000 µM: 1

molecule: Cc1c(C)c2c(c(C)c1O)CCC(C)(C(=O)NCC1CC(C)(C)N([O])C1(C)C)O2 (stereo not drawn)
fold induction at 2 h, 30000 µM: 1

molecule: Cc1c(C)c2c(c(C)c1OC(=O)CCC(=O)O)CCC(C)(C(=O)NC1CC(C)(C)N([O])C(C)(C)C1)O2 (stereo not drawn)
fold induction at 2 h, 30000 µM: 1.1

molecule: Cc1c(C)c2c(c(C)c1O)CCC(C)(C(=O)NC1CC(C)(C)N([O])C(C)(C)C1)O2 (stereo not drawn)
fold induction at 2 h, 30000 µM: 1.4

molecule: Cc1c(C)c2c(c(C)c1OC(=O)CCC(=O)O)CCC(C)(C(=O)O)O2 (stereo not drawn)
fold induction at 2 h, 30000 µM: 1.1

molecule: Cc1c(C)c2c(c(C)c1O)CCC(C)(C(=O)NC1CC(C)(C)N([O])C1(C)C)O2 (stereo not drawn)
fold induction at 2 h, 30000 µM: 1.2

molecule: Cc1c(C)c2c(c(C)c1OC(=O)CCC(=O)O)CC[C@@](C)(CCC[C@H](C)CCC[C@H](C)CCCC(C)C)O2 [(+)-ALPHA-TOCOPHERYL SUCCINATE]
fold induction at 2 h, 30000 µM: 1.1

molecule: Cc1c(C)c2c(c(C)c1OC(=O)CCC(=O)O)CCC(C)(C(=O)NCC1CC(C)(C)N([O])C1(C)C)O2 (stereo not drawn)
fold induction at 2 h, 30000 µM: 1.3
